The values you see were collected from patent US20090264426A1.

Parameter IC50, tested on human MCH-1R (Homo sapiens, UniProt Q99705), listed per item.
Sequence (Q99705 whole entry): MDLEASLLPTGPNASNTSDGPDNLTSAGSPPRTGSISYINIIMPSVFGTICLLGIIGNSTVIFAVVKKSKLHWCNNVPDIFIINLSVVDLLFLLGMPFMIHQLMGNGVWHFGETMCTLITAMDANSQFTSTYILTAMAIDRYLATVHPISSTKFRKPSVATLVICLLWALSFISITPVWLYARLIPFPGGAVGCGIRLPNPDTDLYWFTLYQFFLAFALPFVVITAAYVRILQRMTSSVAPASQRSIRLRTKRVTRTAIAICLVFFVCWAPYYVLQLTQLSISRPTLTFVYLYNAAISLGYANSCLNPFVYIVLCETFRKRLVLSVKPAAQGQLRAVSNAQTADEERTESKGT
PROPERTY NAME: IC50 (nM)

1) CNCc1ccc2cc(-n3ccc(OCc4ccc(Cl)cc4)cc3=O)ccc2n1 2.2
2) O=c1cc(/C=C/c2ccc(Cl)cn2)ccn1-c1ccc2nc(OCCN3CCCC3)cnc2c1 10.1
3) O=c1cc(OCc2ccc(F)cc2)ccn1-c1ccc2cc(CN3CCC3)ncc2c1 6
